What log10(Kd) was measured for each of the following?
Target: T1, RSV postfusion F (postF), subtype A (respiratory syncytial virus, subtype A, UniProt P03420 26-513)
T1 construct: also called F ΔFP; Postfusion subtype A
Experiment: BLI, IgG
Reminder: these figures are log10 of reported Kd, in nM before transformation.

Quick check: log10(Kd) of ADI-14405 (antibody, V domains shown, also called Ab 71) VH: QVQLVQSGTEVKKPGASVKVSCKASGYTFTNYDISWVRQAPGQGLEWMGWISGSTGNTIYAQNLQGRLTMTTDTSTSTAYMELRSLRSDDTAIYYCARDNVGYASGNYFDYWGQGTLVTVSS VL: SYVLTQPPSVSVAPGKTARIPCGGNNIGSKSVHWYQQRPGQAPVLVIYYDSVRPSGIPERFSGSNSGNTATLTISTVEAGDEADFYCQVWDSSRDHEVFGGGTKLTVL ?
1.07

Tell me the measured log10(Kd) of ADI-14427 (antibody, V domains shown, also called Ab 93) VH: QVQLVQSGAEVKKPGSSVKVSCKASGGTFNSYTINWVRQAPGQGLEWMGRIITIPGATNYAQKFQGRVTFTADKSTSTAYMELSSLRSEDTAVYFCAKRGTGYYGMDVWGQGTTVTVSS VL: QSVLIQPRSVSGSPGQSVTISCTGTSSDVGGYNYVSWYQQHPGKAPKLMIYDVSERPSGVPDRFSGSKSGNTASLTISGLQAEDEADYYCCSFVGIYILVFGGGTKLTVL , please.
0.52

Form field: reported log10(Kd) of ADI-14407 (antibody, V domains shown, also called Ab 73) VH: QVQLVQSGGGVVQPGRSLRLSCAASGFTFSSYGMHWVRQAPGKGLEWVAVIWFDGNNKEYADSVKGRFAISRDNSKNTLYLQMNSLRAEDTAVYYCARDLIPVTIFGVVNPYSYYGMDVWGQGTTVTVSS VL: EIVMTQSPSSLSASVGDRVTITCRASQSISTYLNWYQQKPGTAPKLLIYAASSLESGVPSRLSGSGSGTEFILTISSLQREDFATYYCQQSYSTPPTFGQGTKVEIK
-0.42

Recorded log10(Kd) of ADI-21043 (antibody, V domains shown) VH: QVQLVQSGAEVKKPGASVKVSCKASGYTFTSYGITWVRQAPGQGLEWMGWISTYNGKTNYAQKFKGRVTMTTDTSTSTAYVELTSLRSDDTAVYYCAREFPTRIVDSFYMDVWGKGTTVTVSS VL: SYELTQPPSVSVAPGQTARITCGGSNIGSETVHWYQQKPGQAPVLVVYGDSDRPSGIPERFSGSNSGNTATLTISRVEAGDEADYYCQVWDSRSDDFHVFGSGTKLTVL , please.
0.22

Look at this binder and give its reported log10(Kd). ADI-21040 (antibody, V domains shown) VH: EVQLLESGPGLVKPSGTPSLTCAVSGVSITNSNNWWTWVRQPPGKGLEWIGEIYSSGSTNYSPSLKSRVTISLDKSKNQFSLKLSSVTAADTAVYYCARVLGYYGSGGGHLHSWGPGTLVTVSS VL: SYELTQPPSASGTPGQRVTISCSGSSSNIGAGYDVHWYQQLPGTAPKLLISVNSNRPSGVPDRFSGSKSGTSASLAITGLQAEDEANYYCQSYDNSLSGYVVFGGGTKLTVL
-0.11

Value lookup for log10(Kd); key = ADI-21026 (antibody, V domains shown) VH: QVQLVQSGPGLVKPSQTLSLTCTVSGVSISSGGFYWSWIRQHPGKGLEWIGHIYYSRSTYYNPSLKSRVTMSLNMSKNQFSLRLSSVTAADTAVYYCARERREWLHGELDYWGQGTTVTVSS VL: DIQMTQSPDSLAVSLGEGATINCKSSQSVLDSSKNKNYLAWYQQRPGQPPKLLISWASTRESGVPDRFSGSGSGTDFTLTISSLQAEDVAVYSCQQYFSPPATFGQGTKLEIK
-0.02
